Reported LD50 values for the following compounds.
assay: acute toxicity, LD50 (Litchfield and Wilcoxon) on mice; assay type: in vivo; details: mouse, in vivo, ip, mice
Return type: number; implicit unit mg/kg.

Illustrative cases are given below, each with its answer.
compound: CC[C@H]1CN2CCc3c([nH]c4ccccc34)[C@@H]2C[C@@H]1/C(=C\OC)C(=O)OC [DHCN, dihydrocorynantheine]
measureUnit: mg/kg
val: 98

compound: COC(=O)C1=CO[C@@H](C)[C@H]2CN3CCc4c([nH]c5ccccc45)[C@@H]3C[C@H]12 [ajmalicine, reference compound]
measureUnit: mg/kg
val: 90

Now for the compound whose LD50 we want.
LD50 for CC[C@H]1CN2CCc3c([nH]c4ccccc34)[C@@H]2C[C@@H]1C(COC)C(=O)OC (stereo partly drawn) [THCN, tetrahydrocorynantheine] ?
133
